Recorded values, source ChEMBL document CHEMBL3769358.

Target: UniProtKB Q8NER1
Test: Antagonist activity at recombinant human TRPV1 channel expressed in HEK293 cells assessed as inhibition of capsiacin-induced Ca2+ flux by Fluo-4 dye based spectrofluorimetry assay
QUANTITY: IC50

For `COc1cccc(NC(=O)/C=C/c2ccc(Cl)cc2)c1` , what is its reported IC50?
270 nM

---

Biological target: UniProt:Q8NER1
Assay: Agonist activity at recombinant human TRPV1 channel expressed in HEK293 cells assessed as increase in intracellular Ca2+ concentration by Fluo-4-AM dye based spectrofluorimetry relative to ionomycin
Type: cell-based
QUANTITY: Efficacy (%)
Answers are plain numbers, in %.

> print(dat)
                        substance.smiles  u  quantitative.result
1  O=C(CCCCCCCc1ccccc1)NCc1ccc(B(O)O)cc1  %                 54.7
2         O=C(Cc1ccccc1)NCCCCCCCc1ccccc1  %                 54.6

Batch of 2 molecules: report Efficacy for each.
1. CC(C)(C)c1ccc(C(=O)Nc2ccc(B(O)O)cc2)cc1
2. O=C(Cc1ccc(O)cc1)NCCCCCCCc1ccccc1

[39.3, 64.7]

Record Efficacy per entry; entries follow.
1. O=C(CCc1ccccc1)NCc1ccc(B(O)O)cc1
2. O=C(NCc1ccc(B(O)O)cc1)c1ccc(-c2ccccc2)cc1

60.2
22
